Origin of measurements: patent US20230357429A1

- MEASURED_ON: T1, TBD-11 (HC R98A)
- T1 construct: Fab; also called HC R98A mutant
- EXPERIMENT_NOTES: competition ELISA, peptide vs Fab binding to captured biotin-TROP2
Where no end group is shown, it is not given here.

>  <BINDER>
VDFCYLYNWPVCSK (cysteine pairing not given here; also: biotinylated, site not given here) [Peptide-37]

>  <IC50 [µM]>
16.6

$$$$
>  <BINDER>
VDFCYQYGWPICSR (cysteine pairing not given here; also: biotinylated, site not given here) [Peptide-36]

>  <IC50 [µM]>
19.9

$$$$
>  <BINDER>
PDFCYMYNWPVCVT (cysteine pairing not given here; also: biotinylated, site not given here) [Peptide-33]

>  <IC50 [µM]>
18

$$$$
